Biological target: HLA-A0101 (human)
Assay: competition vs labelled reference peptide
Property: Ki (nM)
// units = nM; emit number, no label

Recorded Ki, per entry:
{"Binder": "VIDTLTCGF (modifications not checked)", "Ki [nM]": 1130}
{"Binder": "PAAYAAQGY (modifications not checked)", "Ki [nM]": 1610}
{"Binder": "LVDILAGYGA (modifications not checked)", "Ki [nM]": 419}

[ask] Specify Ki for LADGGCSGGAY (modifications not checked) and stop.
[reply] 60

[ask] Specify Ki for FTEAMTRYS (modifications not checked) and stop.
[reply] 6610

[ask] Specify Ki for FTDNSSPPA (modifications not checked) and stop.
[reply] 10

[ask] Specify Ki for LTCGFADLM (modifications not checked) and stop.
[reply] 3550
